System: UACC-257 melanoma
Assay method text: NCI-60 one-dose screen, 48 h
Stated conditions: 10 µM unless noted
About 83,000 compounds went through this panel and 20% of them were active in at least one assay; those are over-represented in the sample as a whole. Activity calls are given as the source filed them. How the source made its calls: active means growth percent below 10; inactive means the rest.
A correct response names exactly one class from active, inactive

Query :: In this assay, the call recorded for `COc1ccc(-c2cc(-c3ccccc3)nc(SCCCCCC(=O)NO)n2)cc1` was what?
Result :: inactive

Query :: In this assay, the call recorded for `Cc1ccc(-c2cc(-c3ccc(C)cc3)nc(NCCNc3ccnc4cc(Cl)ccc34)n2)cc1` was what?
Result :: active

Query :: In this assay, the call recorded for `O=[N+]([O-])c1cc([N+](=O)[O-])c(NN=C(c2ccc(O)cc2)c2ccc(O)cc2)cc1Cl` was what?
Result :: active

Query :: In this assay, the call recorded for `O=C(O)c1cn(C2CC2)c2cc(N3CCN(Cc4c(O)ccc5ccccc45)CC3)c(F)cc2c1=O` was what?
Result :: inactive

Query :: In this assay, the call recorded for `O=C(N=c1n(-c2ccccc2)nc2n1CCN2C1=NCCN1)c1ccc(Cl)cc1` was what?
Result :: inactive
